Target: Pancreatic alpha-amylase (Sus scrofa, UniProt P00690)
Sequence (P00690 whole entry): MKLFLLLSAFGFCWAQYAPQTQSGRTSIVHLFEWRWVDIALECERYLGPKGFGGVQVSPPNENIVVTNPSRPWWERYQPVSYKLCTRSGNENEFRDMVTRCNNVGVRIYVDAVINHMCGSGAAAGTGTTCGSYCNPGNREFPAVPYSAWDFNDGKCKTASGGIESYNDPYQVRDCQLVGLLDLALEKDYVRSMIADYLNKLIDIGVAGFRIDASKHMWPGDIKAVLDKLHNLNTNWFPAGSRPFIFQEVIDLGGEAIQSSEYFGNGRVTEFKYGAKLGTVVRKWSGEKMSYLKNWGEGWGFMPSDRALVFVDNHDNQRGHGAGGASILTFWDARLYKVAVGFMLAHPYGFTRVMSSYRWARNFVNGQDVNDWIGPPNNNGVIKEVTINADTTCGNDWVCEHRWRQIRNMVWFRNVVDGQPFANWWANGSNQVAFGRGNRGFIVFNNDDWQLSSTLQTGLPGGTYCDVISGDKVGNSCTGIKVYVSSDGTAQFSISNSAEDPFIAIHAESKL
property measured: IC50

Note to self: IC50 recorded for `COc1ccc(CNC(=O)Nc2sc3c(c2C#N)CCCC3)c(OC)c1` was 590 nM

---

Target: Alpha amylase (Homo sapiens)
Assay: Inhibition of alpha-amylase (unknown origin) using starch as substrate preincubated with substrate for 15 mins followed by compound addition and measured after 15 mins by UV-VIS spectrophotometric analysis
IC50 vs 400 nM: less than gives T; not less than gives F.

Worked examples follow.
O=C(N/N=C/c1ccccc1)c1csc(Nc2ccccc2)n1 : F
COc1ccc(Nc2nc(C(=O)N/N=C/c3ccc(OC)c(OC)c3)cs2)cc1 : F
COc1ccc(Nc2nc(C(=O)N/N=C/c3ccccc3)cs2)cc1 : F

# next molecule below
# check: IC50 < 400 nM for `O=C(N/N=C/c1ccc(F)cc1)c1csc(Nc2ccc([N+](=O)[O-])cc2)n1`
T

---

Biological target: Alpha amylase (Homo sapiens, UniProt P0DUB6)
Sequence (P0DUB6 whole entry): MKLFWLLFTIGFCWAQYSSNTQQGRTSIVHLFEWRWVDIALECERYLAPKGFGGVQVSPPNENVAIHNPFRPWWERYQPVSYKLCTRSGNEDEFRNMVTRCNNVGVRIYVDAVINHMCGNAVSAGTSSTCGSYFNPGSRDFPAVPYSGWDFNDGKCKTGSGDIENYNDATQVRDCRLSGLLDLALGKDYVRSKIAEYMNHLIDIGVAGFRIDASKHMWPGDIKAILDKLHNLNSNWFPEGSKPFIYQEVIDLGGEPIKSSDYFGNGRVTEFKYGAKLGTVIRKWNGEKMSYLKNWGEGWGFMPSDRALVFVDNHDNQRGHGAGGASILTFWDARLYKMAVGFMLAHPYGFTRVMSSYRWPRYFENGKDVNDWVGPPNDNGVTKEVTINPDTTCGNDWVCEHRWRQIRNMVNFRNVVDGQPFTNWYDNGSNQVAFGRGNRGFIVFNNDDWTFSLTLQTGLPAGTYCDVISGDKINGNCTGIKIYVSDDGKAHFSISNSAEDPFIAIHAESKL
Assay: Inhibition of alpha-amylase (unknown origin) using starch as substrate preincubated with substrate for 15 mins followed by compound addition and measured after 15 mins by UV-VIS spectrophotometric analysis
The threshold is 400 nM. Values of IC50 beneath it are tagged 1 (yes); values meeting or exceeding it are tagged 0 (no).

Study these solved cases before continuing.
C/C(=N\NC(=O)c1csc(Nc2ccc(Cl)cc2)n1)c1ccccn1 : 1 (yes)
COc1cc(/C=N/NC(=O)c2csc(Nc3ccc([N+](=O)[O-])cc3)n2)cc(OC)c1OC : 1 (yes)
O=C(N/N=C/c1ccc(O)c(O)c1)c1csc(Nc2ccccc2)n1 : 0 (no)
O=C(N/N=C/c1ccc(O)cc1)c1csc(Nc2ccc([N+](=O)[O-])cc2)n1 : 1 (yes)
COc1ccc(Nc2nc(C(=O)N/N=C/c3ccc(O)cc3)cs2)cc1 : 0 (no)

Next:
Hello, is IC50 of the following molecule strictly smaller than 400 nM? `O=C(N/N=C/c1ccccc1)c1csc(Nc2ccc(Cl)cc2)n1`
1 (yes)

---

Biological target: Alpha amylase (Homo sapiens, UniProt P0DUB6)
Assay: Inhibition of alpha-amylase (unknown origin)
Mark true for IC50 under 10 µM, false if at or over.

Take the molecule `O=C1CS/C(=N\N=C\c2ccc(OS(=O)(=O)c3ccccc3[N+](=O)[O-])cc2)N1` and say whether its IC50 is less than 10 µM.
false

Lab log: compare recorded IC50 with 10 µM; is it strictly lower for `Cc1c(C(=O)N/N=C/c2ccc(O)c(O)c2)oc2ccccc12` ?
true

Does the reported IC50 of the following molecule sit strictly below 10 µM? `COc1cc(-c2nc3ccccc3[nH]2)ccc1OCC(=O)Nc1ccccc1C`
false

Is IC50 strictly under 10 µM for the entry `CC(=O)c1sc(N/N=C(/C)c2ccc(Cl)cc2)nc1C` ?
true

Is the reported IC50 for Cc1ccc([C@H]2C3CSCN3[C@@]3(C(=O)Nc4ccccc43)[C@]23N=C(c2ccccc2)OC3=O)cc1 (stereo partly specified) strictly below 10 µM?
true

---

Target: Alpha amylase (Homo sapiens, UniProt P0DUB6)
Test: Inhibition of alpha-amylase (unknown origin) using starch as substrate preincubated with substrate for 15 mins followed by compound addition and measured after 15 mins by UV-VIS spectrophotometric analysis
property measured: IC50
Returns: string containing the number followed by the unit.

Consider the worked cases shown below.
COc1ccc(/C=N/NC(=O)c2csc(Nc3ccc(Cl)cc3)n2)cc1 : 0.4 µM
COc1cc(/C=N/NC(=O)c2csc(Nc3ccccc3)n2)ccc1O : 0.41 µM
COc1ccc(Nc2nc(C(=O)N/N=C/c3ccc(Cl)cc3)cs2)cc1 : 0.41 µM

Now look at this one.
Looking up `O=C(N/N=C/c1ccc(O)cc1)c1csc(Nc2ccc(Cl)cc2)n1` , I see its IC50 listed as 0.41 µM
